Reference for the values: the supplement of paper PMC10201428

Tested on: VchCAST RNA-guided transposition machinery (E. coli BL21(DE3) host, lacZ target)
test-name: relative integration efficiency (T-LR orientation) vs wild-type transposon end (log2 (normalized fold change)); transposon end mutated: right end (5 bp flank + 75 bp right end); higher = more efficient transposition
Classify by measured relative integration efficiency (log2): fulfilled if it is equal to or exceeds -0.3, not fulfilled if it is smaller.

1) ACATTTGTTCATACAACCCTAAAATGATAATTACACCCATAAATTGATCATTATCACCCCCAATTTAACTATAACGCTCTGATCATAGTCAGACCAACATTGCTACGACCCGTATTCGCACCGACAC : not fulfilled
2) ACATTTGTTGATACAACCATAAAATGATAATTACACCCATAAATTGATAATTATCACACCCATAAATTGATATTGCCTCTGATAACTTCGTATAATGTATCGTATACGAACGGTATCGCACCGACAC : fulfilled
3) ACATTTGTTGATACAACCATAAAATGATAATTACACGGTAAAATTGATAATTATCACACCCATAAATTGATATTGCCTCTGATCATAGTCAGACCAACATTGCTACGACCCGTATTCGCACCGACAC : not fulfilled
4) ACATTTGTTGATACAACCATAAAATGATAATTACACCCATAAATTGATAATTATCACACCCATAAATTGATATTGCCTCTTCATGCAGATTTGAACAGTTTCAAATGCTGATTTTCAGCACCGACAC : fulfilled
5) ACATTTGTTCATACAACCCTAAAATGATAATTACACCCATAAATGGATCATTATCACCCCCAATTTAACTATAACGCTCTGATCATAGTCAGACCAACATTGCTACGACCCGTATTCGCACCGACAC : not fulfilled
